This section presents compounds with their documented AC50 values.
# Test system: Thyroperoxidase (TPO), gene 54314
# assay procedure: CCTE_Simmons_AUR_rTPO: CCTE's Amplex UltraRed Assay for Thyroperoxidase (TPO) Inhibition, Simmons Lab (AID 2283662);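 also: potency for loss of signal meaning inhibition of peroxidase activity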
The source made the active and inactive calls. The calls were made as follows: active = hit-call score of the fitted dose curve at least 0.9, where 1 is the maximum; inconclusive = response in the unintended direction; inactive = score below 0.9.

Worked cases, answers included:
compound	readout label	experimental value
COc1ccc(N=Nc2cc(C)c(N=Nc3ccc(S(=O)(=O)O)cc3)cc2OC)cc1	AC50	53.9 µM (active)
CC(C)CCCCCCCCCCCCCCC(=O)O	AC50	43.8 µM (active)
CCOc1ccc(N=Nc2ccc(C=Cc3ccc(N=Nc4ccc(OCC)cc4)cc3S(=O)(=O)O)c(S(=O)(=O)O)c2)cc1	AC50	30.2 µM (active)
CCOC(=O)c1ccc(N)cc1	AC50	22.2 µM (active)
CS(=O)(=O)OCCCCOS(C)(=O)=O	AC50	30.6 µM (active)

Which measured AC50 belongs to O=c1c(O)c(-c2ccc(O)cc2)oc2cc(O)cc(O)c12 , tested on Thyroperoxidase (TPO), gene 54314?
0.0805 µM (active)

Try this compound too: CCc1cc(Cc2cc(CC)cc(C(C)(C)C)c2O)c(O)c(C(C)(C)C)c1
1.8 µM (active)

For CC(CN=Cc1ccccc1O)N=Cc1ccccc1O (stereo not drawn) then?
26 µM (active)

###

# assay system: human Ephrin type-A Receptor 1 (EphA1), EPHA1 (gene 2041) (UniProt P21709)
# Sequence (P21709 whole entry, looked up): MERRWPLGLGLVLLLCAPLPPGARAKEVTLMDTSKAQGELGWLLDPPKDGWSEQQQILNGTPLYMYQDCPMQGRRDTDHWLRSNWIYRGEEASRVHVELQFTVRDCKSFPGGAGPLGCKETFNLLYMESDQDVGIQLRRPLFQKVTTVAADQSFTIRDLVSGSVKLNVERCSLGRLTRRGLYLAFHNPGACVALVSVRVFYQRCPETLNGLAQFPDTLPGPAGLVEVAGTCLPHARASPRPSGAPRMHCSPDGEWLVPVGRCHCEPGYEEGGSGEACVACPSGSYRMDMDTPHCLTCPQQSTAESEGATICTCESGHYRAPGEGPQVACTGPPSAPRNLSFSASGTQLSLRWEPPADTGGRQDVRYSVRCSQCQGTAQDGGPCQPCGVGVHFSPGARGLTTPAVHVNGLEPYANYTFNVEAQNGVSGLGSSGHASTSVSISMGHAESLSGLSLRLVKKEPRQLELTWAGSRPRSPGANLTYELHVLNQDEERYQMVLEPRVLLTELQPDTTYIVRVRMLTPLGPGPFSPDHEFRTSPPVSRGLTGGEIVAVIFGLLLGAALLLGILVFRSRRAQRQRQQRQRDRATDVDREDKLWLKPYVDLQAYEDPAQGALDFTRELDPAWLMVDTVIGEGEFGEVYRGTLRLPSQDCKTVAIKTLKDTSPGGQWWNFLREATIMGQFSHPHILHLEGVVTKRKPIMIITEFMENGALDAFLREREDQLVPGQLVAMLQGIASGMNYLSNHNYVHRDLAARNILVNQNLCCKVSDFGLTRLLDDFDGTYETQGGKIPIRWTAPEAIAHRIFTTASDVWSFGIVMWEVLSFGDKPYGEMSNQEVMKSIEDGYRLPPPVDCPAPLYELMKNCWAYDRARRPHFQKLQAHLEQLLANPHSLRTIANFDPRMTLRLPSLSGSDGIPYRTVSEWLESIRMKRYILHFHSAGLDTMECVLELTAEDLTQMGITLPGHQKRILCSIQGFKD
# assay procedure: NVS_ENZ_hEphA1: NovaScreen (NVS) Enzymatic Assay for human Ephrin type-A Receptor 1 (EphA1) (AID 2283158);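 also: activity is signal loss versus DMSO meaning EphA1 kinase inhibition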
Results filed as inconclusive are left out. The source made the active and inactive calls. How the source made its calls: active means hit-call score of the fitted dose curve at least 0.9, where 1 is the maximum; inconclusive means response in the unintended direction; inactive means score below 0.9.
Parameter call: string, one of Y (active), N (inactive)

Field: example entries. Status: answers known.
compound	assay system	group label
CCN(CC)C(=O)N(CC)CC	human Ephrin type-A Receptor 1 (EphA1), EPHA1 (gene 2041) (UniProt P21709)	Y
C=CC(=O)OCCCC	human Ephrin type-A Receptor 1 (EphA1), EPHA1 (gene 2041) (UniProt P21709)	N
CCC(C)c1cc([N+](=O)[O-])cc([N+](=O)[O-])c1OC(=O)OC(C)C (centres undefined)	human Ephrin type-A Receptor 1 (EphA1), EPHA1 (gene 2041) (UniProt P21709)	Y

Moving on to the next compound.
Any idea what this test logged for CC(C)(N=C=O)c1cccc(C(C)(C)N=C=O)c1 ?
N

###

# assay system: Cellular tumor antigen p53 (Homo sapiens)
# assay procedure: TOX21_p53_BLA_p3_ratio: Tox21 HCT-116 p53 Agonism Beta-lactamase Assay, Ratio, Phase 3 (AID 2283596)
Records with an inconclusive call do not appear. Active and inactive are the calls of the source. The calls were made as follows: active = hit-call score of the fitted dose curve at least 0.9, where 1 is the maximum; inconclusive = response in the unintended direction; inactive = score below 0.9.
The reply should name one outcome from active, inactive

Hi team, can someone confirm the assay call for NCCNc1cccc2ccccc12 ?
inactive

###

# assay system: Peroxisome proliferator-activated receptor gamma (Homo sapiens)
# assay procedure: ATG_PPARg_TRANS: Attagene TRANS-FACTORIAL HepG2 Assay for human Peroxisome Proliferator-activated Receptor-gamma (PPARg) (AID 2283007)
Inconclusive results are not listed. The source made the active and inactive calls. Rule for the calls: active = hit-call score of the fitted dose curve at least 0.9, where 1 is the maximum; inconclusive = response in the unintended direction; inactive = score below 0.9.
Output constraint: value belongs to 1.0 for active, 0.0 for inactive

The following molecules have reported results that may help.
molecule	assay system	group label
CC(C)=CCCC(C)CCOC=O (stereo not drawn)	Peroxisome proliferator-activated receptor gamma (Homo sapiens)	0.0
CN(C)c1cccc(O)c1	Peroxisome proliferator-activated receptor gamma (Homo sapiens)	0.0
CCOC(=O)CCc1ccccc1	Peroxisome proliferator-activated receptor gamma (Homo sapiens)	0.0
CC(C)C(OC(=O)c1ccccc1)C(C)(C)COC(=O)c1ccccc1 (stereo not drawn)	Peroxisome proliferator-activated receptor gamma (Homo sapiens)	0.0
CC1=CC[C@@]23C[C@@H]1C(C)(C)[C@@H]2CC[C@H]3C	Peroxisome proliferator-activated receptor gamma (Homo sapiens)	0.0
CCOC(=O)CC(C)O (stereo not drawn)	Peroxisome proliferator-activated receptor gamma (Homo sapiens)	0.0
CC(C)Nc1nc(N)nc(Cl)n1	Peroxisome proliferator-activated receptor gamma (Homo sapiens)	0.0
CCCCCCCCCCCCN1CCCCCC1=O	Peroxisome proliferator-activated receptor gamma (Homo sapiens)	0.0
Cc1cc(=O)oc2cc(N(C)C)ccc12	Peroxisome proliferator-activated receptor gamma (Homo sapiens)	0.0
Brc1ccc(Br)c(Br)c1	Peroxisome proliferator-activated receptor gamma (Homo sapiens)	0.0

Which result was noted for this molecule in the test: C=C(C)C1CC=C(C)C(=O)C1 (stereo not drawn)
0.0

Can you check O=C(Nc1ccc([N+](=O)[O-])cc1)Nc1ccc([N+](=O)[O-])cc1 (tested in a mixture with another compound) next?
0.0

Next record, please: CCCCCCC(O)CCCCCCCCCCC(=O)O (stereo not drawn)
1.0

Now this one: C=C1CC[C@H](O)C/C1=C/C=C1\CCC[C@]2(C)[C@@H]([C@H](C)/C=C/[C@H](C)C(C)C)CC[C@@H]12
0.0

Then CC[N+](C)(CC)CC ?
0.0

Same question, C1CCOC1 this time
0.0

And the next one, C=CCOC(=O)CCCCCC ?
0.0

How about CCCCCCCC/C=C\CCCCCCCC(=O)OCC ?
1.0
